System: SK-MEL-2 melanoma
Assay: NCI-60 one-dose screen, 48 h (100 = growth as untreated, 0 = no growth, -100 = all killed)
Conditions: 10 µM
Experimental: Growth inhibition of the SK-MEL-2 human tumor cell line is measured as a screen for anti-cancer activity. Cells are grown in 96 well plates and exposed to the test compound for 48 hours. Compounds are tested at a single concentration, which is 10^-5 M for most compounds. The reported endpoint is percent growth (GI% or GIPRCNT), where numbers from 0 - 100% represent growth inhibition, and numbers from -100% - 0 represent cell death. For example, a value of 40 represents 60% growth inhibition. […]
Compounds without any hit were thinned out: in the full panel of roughly 83,000, 20% have a hit.
Listing: growth of selected molecules
// units = %; emit number, no label

What value of growth has been reported for the following molecule? CN1C/C(=C\c2ccc(O)cc2O)c2[o+]c3cc(O)ccc3cc2C1
46.5

Consider the molecule O=C1NC(=NC23CC4CC(CC(C4)C2)C3)N/C1=C\c1ccc2ncsc2c1 and give its measured growth.
-23.3

Any idea what its growth is? The molecule is CN1CCCN(Cc2ccc(C(=O)Nc3cccc(Nc4ccc5c(O)cccc5n4)c3)cc2C(F)(F)F)CC1
-76.5

So what does the record say about growth for CC1(C)CC[C@]23CC[C@]4(C)[C@H](CC[C@@H]5[C@@]6(C)CC[C@H](N)C(C)(C)[C@@H]6CC[C@]54C)[C@H]2[C@H]1OC3=O ?
-77.2

Give its growth value. Item: O=C(c1ccc(Cl)cc1)C1[C@H](c2ccccc2Br)[C@@H](c2ccccc2)NC12C(=O)Nc1ccc(Cl)cc12 (some centres not stated)
13.8

Look up growth for this molecule: O/N=C(\CSc1nnc(-c2c[nH]c3ccccc23)n1-c1ccccc1)c1ccc(Br)cc1
-66.3

Value lookup for growth; key = Cc1ccc(C(=O)NCCCNc2nc(Nc3ccc(N4CCN(C)CC4)cc3)nc3ccsc23)cc1
81.8

Recorded growth of C=C(C)[C@@H]1CC[C@]2(C(=O)OC)CC[C@]3(C)[C@H](CC[C@@H]4[C@@]5(C)CC[C@H](N)C(C)(C)[C@@H]5CC[C@]43C)[C@@H]12 , please.
-75.3
